Values from the supplement of paper PMC10567573

The following variants are listed with their measured protein stability index values.
B1: ZNF449 (parent)
chain: HTGERPYECTVCKKRFTRRSHLIG

variants of: B1; test: protein stability index of a GFP-peptide fusion (GPS, HEK-293T) (PSI 1-6); higher = more stable; settings: c terminus: a fixed tail appended;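 note: lentivirally expressed fusions sorted by FACS into six bins by GFP to DsRed ratio, PSI derived from sequencing read proportions per bin multiplied by bin number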
Quantity Kind: protein stability index

- R18V: 1.59
- G3A: 2.63
- R15V: 2.16
- L22Q: 2.58
- G24D: 2.81
- T10M: 2.51
- T2E: 2.94
- C12P: 3.06
- H1F: 1.78
